# system.tested: Leucine aminopeptidase (Plasmodium falciparum (isolate 3D7))
# test.summary: inhibition of purified malaria M17 aminopeptidase – biochemical, fluorescence, recombinant enzyme, powder samples, late-stage follow-up (AID 492977)
# stated.conditions: recombinant PfM17LAP, H-Leu-NHMec fluorogenic substrate; at 5 µM; active compounds read high
A collection of compounds and their measured inhibition
# unit: % | format: bare number

Worked set:
[
  {
    "compound": "S=c1nc(-c2ccccc2Br)[nH][nH]1",
    "inhibition [%]": 27
  },
  {
    "compound": "COC(=O)c1c(-c2ccc(C)cc2)csc1NC(=O)[C@H]1CC=CC[C@H]1C(=O)O",
    "inhibition [%]": 47
  },
  {
    "compound": "O=C(Nc1cccc(Cl)c1)[C@H]1CC=CC[C@H]1C(=O)O",
    "inhibition [%]": 13
  }
]

Entry Cc1ccc(Nc2nnc(SC3CCOC3=O)s2)cc1 (stereo not given) ; inhibition = 53

According to the records, this compound `CCc1ccc(NC(=O)[C@H]2CC=CC[C@H]2C(=O)O)cc1` displays inhibition of 27

inhibition in this record for `COc1ccc2nc(SCC(=O)Nc3cc(OC)c(OC)cc3C(=O)O)c(C)cc2c1` : 86

---

# system.tested: Leucine aminopeptidase (Plasmodium falciparum (isolate 3D7))
# test.summary: inhibition of purified malaria M17 aminopeptidase – biochemical, fluorescence, recombinant enzyme, powder samples, late-stage follow-up (AID 492977)
# stated.conditions: recombinant PfM17LAP, H-Leu-NHMec fluorogenic substrate; at 5 µM; active compounds read high
Class definitions on inhibition: zone 1: < 40%; zone 2: ≥ 40% and < 50%; zone 3: ≥ 50%

Please review the entries below; each comes with its answer.
[
  {
    "test.smiles": "CCCCc1c(O)nc(SCC(=O)Nc2ccc3c(c2)CCC3)[nH]c1=O",
    "class.label": "zone 1"
  },
  {
    "test.smiles": "O=C(CSc1nc(O)cc(=O)n1-c1ccccc1)Nc1ccc2c3c(cccc13)CC2",
    "class.label": "zone 1"
  },
  {
    "test.smiles": "CCc1cc2ccccc2nc1SCC(=O)Nc1cc(OC)c(OC)cc1C(=O)O",
    "class.label": "zone 3"
  },
  {
    "test.smiles": "O=C(CSc1nnc(Nc2ccccc2)s1)NN1C(=O)NC2(CCCCC2)C1=O",
    "class.label": "zone 1"
  }
]

Where would `O=C(Nc1ccc(Cl)cc1)Nc1cccc(C(=O)O)c1` land among the classes by reported inhibition?
zone 3

Which inhibition category applies to `S=c1nc(-c2cccc(Cl)c2)[nH][nH]1` here?
zone 2

---

# system.tested: Leucine aminopeptidase (Plasmodium falciparum (isolate 3D7)) (UniProt Q8IL11)
# Sequence (Q8IL11 whole entry, looked up): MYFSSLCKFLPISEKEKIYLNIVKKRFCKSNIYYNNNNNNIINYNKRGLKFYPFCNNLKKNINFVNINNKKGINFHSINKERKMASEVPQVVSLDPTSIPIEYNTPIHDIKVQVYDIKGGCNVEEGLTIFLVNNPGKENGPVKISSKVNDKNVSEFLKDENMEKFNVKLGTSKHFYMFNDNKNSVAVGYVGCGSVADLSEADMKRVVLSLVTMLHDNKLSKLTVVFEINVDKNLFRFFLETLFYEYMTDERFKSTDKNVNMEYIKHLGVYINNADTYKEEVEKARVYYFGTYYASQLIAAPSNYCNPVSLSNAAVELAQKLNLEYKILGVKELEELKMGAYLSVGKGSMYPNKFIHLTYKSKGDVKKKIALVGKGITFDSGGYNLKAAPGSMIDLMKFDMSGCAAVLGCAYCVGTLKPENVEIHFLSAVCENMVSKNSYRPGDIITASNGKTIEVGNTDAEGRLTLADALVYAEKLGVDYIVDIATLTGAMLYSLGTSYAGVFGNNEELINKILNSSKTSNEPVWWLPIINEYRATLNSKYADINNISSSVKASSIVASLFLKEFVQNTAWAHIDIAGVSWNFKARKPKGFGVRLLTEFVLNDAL
# test.summary: inhibition of purified malaria M17 aminopeptidase – biochemical, fluorescence, recombinant enzyme, powder samples, late-stage follow-up (AID 492977)
# stated.conditions: recombinant PfM17LAP, H-Leu-NHMec fluorogenic substrate; at 5 µM; active compounds read high
property.name: inhibition (%)
The figure you give is taken to be in %; do not add the unit.

Solved entries:
[
  {
    "test.smiles": "O=c1cc(-c2ccc(Cl)c(Cl)c2)[nH][nH]1",
    "endpoint.unit": "%",
    "numeric.readout": 2
  },
  {
    "test.smiles": "O=C(O)CCCCCNC(=O)Nc1ccc2c(c1)OCCO2",
    "endpoint.unit": "%",
    "numeric.readout": 15
  },
  {
    "test.smiles": "COc1ccc(NC(=O)CSc2nc(O)cc(=O)n2C)cc1",
    "endpoint.unit": "%",
    "numeric.readout": 18
  }
]

response.value for `Cc1ccc(-n2c(C)cc(C(=O)COC(=O)c3ccc[nH]c3=O)c2C)cc1C` (field: inhibition) = 36

# inhibition of `C=CCn1c(SCC(=O)Nc2cccc3ccccc23)nc(O)c(CC)c1=O` = 20

Query `COc1ccc(-c2cc(=O)[nH][nH]2)cc1OC` yields inhibition of 18
